assayedTarget: p300 HAT domain (residues 1287-1666) (Homo sapiens (Human), UniProt Q09472)
Sequence (Q09472 1287-1666): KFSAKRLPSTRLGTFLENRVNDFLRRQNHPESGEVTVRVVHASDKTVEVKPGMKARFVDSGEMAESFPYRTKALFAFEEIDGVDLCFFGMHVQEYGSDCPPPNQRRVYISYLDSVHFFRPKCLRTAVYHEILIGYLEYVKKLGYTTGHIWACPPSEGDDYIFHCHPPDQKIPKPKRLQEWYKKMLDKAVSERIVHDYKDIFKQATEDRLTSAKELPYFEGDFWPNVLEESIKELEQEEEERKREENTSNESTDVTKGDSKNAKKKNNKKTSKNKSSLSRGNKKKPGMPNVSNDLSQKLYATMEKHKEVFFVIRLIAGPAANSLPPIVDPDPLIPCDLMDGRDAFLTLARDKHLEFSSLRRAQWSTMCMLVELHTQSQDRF
procedureSummary: p300 HAT SPA assay (scintillation proximity assay, acetylation of biotinylated H3(1-21) peptide)
Assay type: biochemical
conditionInfo: p300 HAT domain; average of at least 2 replicate titrations; read-out: P300 HAT SPA IC50
outcomeMeasure: IC50 (µM)

1. O=C(c1c[nH]c2ccccc12)C(NCCc1cn[nH]c1)c1ccccc1 (single isomer, unassigned) [34 Isomer 2]; 24.7

I: COc1ccc(CCN[C@H](C(=O)c2c[nH]c3c(C(C)C)cccc23)c2ccccc2)cc1 (single isomer, unassigned) [145 Isomer 1]
II: N#Cc1ccc(CCNC(C(=O)c2c[nH]c3cc(C(=O)O)ccc23)c2ccccc2)cc1 (single isomer, unassigned) [155 Isomer 2]
(Q) Pick one, I or II : lowest reported IC50. Pick one; state its label.
(A) II
